Molecular target: H^+/K^+-ATPase (Sus scrofa, UniProt P19156)
Construct: used as an enzyme source of the in vitro enzyme reaction assay of proton pump
Sequence (P19156 2-1034 limits assumed): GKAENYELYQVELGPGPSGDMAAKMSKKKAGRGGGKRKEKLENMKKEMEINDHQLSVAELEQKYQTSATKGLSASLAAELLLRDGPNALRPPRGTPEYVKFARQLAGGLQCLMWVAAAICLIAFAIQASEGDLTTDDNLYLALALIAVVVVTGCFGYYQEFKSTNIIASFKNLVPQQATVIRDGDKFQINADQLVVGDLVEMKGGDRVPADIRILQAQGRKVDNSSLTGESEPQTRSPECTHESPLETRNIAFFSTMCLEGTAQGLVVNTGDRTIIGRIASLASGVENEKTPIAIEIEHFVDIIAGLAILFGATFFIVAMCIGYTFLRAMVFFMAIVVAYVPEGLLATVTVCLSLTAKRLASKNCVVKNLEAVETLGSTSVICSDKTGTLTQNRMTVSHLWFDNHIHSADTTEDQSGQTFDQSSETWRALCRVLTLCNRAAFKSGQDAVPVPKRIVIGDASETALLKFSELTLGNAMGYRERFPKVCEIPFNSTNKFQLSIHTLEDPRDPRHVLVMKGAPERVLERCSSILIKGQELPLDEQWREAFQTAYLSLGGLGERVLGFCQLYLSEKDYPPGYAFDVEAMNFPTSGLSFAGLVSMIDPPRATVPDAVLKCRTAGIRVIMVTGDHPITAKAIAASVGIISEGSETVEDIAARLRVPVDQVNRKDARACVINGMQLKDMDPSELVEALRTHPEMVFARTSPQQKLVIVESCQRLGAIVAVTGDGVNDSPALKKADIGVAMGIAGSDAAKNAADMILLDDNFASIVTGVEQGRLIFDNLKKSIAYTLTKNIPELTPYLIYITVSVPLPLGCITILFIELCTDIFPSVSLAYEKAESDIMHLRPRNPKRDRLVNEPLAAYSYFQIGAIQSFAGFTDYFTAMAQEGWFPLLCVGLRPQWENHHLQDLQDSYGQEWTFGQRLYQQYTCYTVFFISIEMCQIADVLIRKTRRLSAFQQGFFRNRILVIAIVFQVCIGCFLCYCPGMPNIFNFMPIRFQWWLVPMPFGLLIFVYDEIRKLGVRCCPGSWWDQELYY
Sequence (P18434 whole entry partner): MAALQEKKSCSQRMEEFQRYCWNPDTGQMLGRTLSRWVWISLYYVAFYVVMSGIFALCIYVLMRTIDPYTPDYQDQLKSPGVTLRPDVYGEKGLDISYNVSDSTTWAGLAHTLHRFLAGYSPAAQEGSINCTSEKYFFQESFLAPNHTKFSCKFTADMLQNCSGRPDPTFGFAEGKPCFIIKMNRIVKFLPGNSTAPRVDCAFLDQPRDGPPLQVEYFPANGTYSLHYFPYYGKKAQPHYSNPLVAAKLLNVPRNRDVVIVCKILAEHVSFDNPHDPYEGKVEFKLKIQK
Experiment: Inhibitory effects on proton pump (H^+/K^+-ATPase) activity, hog gastric vesicles
Details: K^+ stimulated H^+/K^+-ATPase activity, hog gastric vesicle, Pi measured at 620 nm
pIC50: −log10 of the molar value. Counter-ions that a name gives are not always drawn.
measurement type: pIC50

Field: example entries. Status: answers known.
CC(C)=CCn1c(C)c(C)c2nccc(OCc3ccc(F)cc3)c21 [Example 56, hydrochloride]	6.24
Cc1c(C)n(CCC2OCCO2)c2c(N3CCc4ccccc4C3)ccnc12 [Example 14, hydrochloride]	6.28
CCCn1c(C)c(C)c2nccc(OCc3cc(F)cc(F)c3)c21 [Example 182, hydrochloride]	5.41
COCCn1c(C)c(C)c2nccc(OCc3cccc(C)c3)c21 [Example 157, hydrochloride]	6.24

[a] C=CCn1c(C)c(C)c2nccc(N3CCc4ccccc4C3)c21 [Example 7, hydrochloride]
[b] COCn1c(C)c(C)c2nccc(OCc3ccc(Cl)cc3)c21 [Example 74, hydrochloride]
# input Compare a and b and name the one whose reported pIC50 is smaller. Please respond with the label that marks your chosen entry.
# output b
(b: 5.97, a: 6.66)

* * *

Target: H^+/K^+-ATPase (Sus scrofa, UniProt P19156)
Construct: used as an enzyme source of the in vitro enzyme reaction assay of proton pump
Test: Inhibitory effects on proton pump (H^+/K^+-ATPase) activity, hog gastric vesicles
Conditions: K^+ stimulated H^+/K^+-ATPase activity, hog gastric vesicle, Pi measured at 620 nm
Where a name gives a salt, the structure may show the parent alone.
measurement type: IC50 (µM)

Some solved cases for reference:
Cc1ccc(C)c(Cn2c(C)c(C)c3nccc(OCc4ccc(Cl)cc4)c32)c1 [Example 82, hydrochloride]	4.7
Cc1c(C)n(CC(C)C)c2c(OCc3ccc4c(c3)OCO4)ccnc12 [Example 120, hydrochloride]	0.12

[A] COc1cccc(Cn2c(C)c(C)c3nccc(N4CCc5ccccc5C4)c32)c1 [Example 8, hydrochloride]
[B] CCn1c(C)c(C)c2nccc(N3CCc4ccccc4C3)c21 [Example 13, hydrochloride]
# input # returns the entry with the larger IC50; inputs A and B The response must carry the label of the picked entry.
# output B
(B: 0.8 µM, A: 0.44 µM)

* * *

Target: H^+/K^+-ATPase (Sus scrofa)
Construct: used as an enzyme source of the in vitro enzyme reaction assay of proton pump
Test: Inhibitory effects on proton pump (H^+/K^+-ATPase) activity, hog gastric vesicles
Conditions: K^+ stimulated H^+/K^+-ATPase activity, hog gastric vesicle, Pi measured at 620 nm
Where a name gives a salt, the structure may show the parent alone.
measurement type: IC50 (nM)

Some compounds with recorded IC50:
Cc1c(C)n(Cc2ccc(F)cc2)c2c(OCc3ccc4c(c3)OCO4)ccnc12 [Example 118, hydrochloride]	460
CCn1c(C)c(C)c2nccc(OCc3cccc(C)c3)c21 [Example 145, hydrochloride]	530

[A] CCOc1ccccc1COc1ccnc2c(C)c(C)n(Cc3cccc(OC)c3)c12 [Example 177, hydrochloride]
[B] Cc1c(C)n(CC2CCC2)c2c(OCc3cc(F)cc(F)c3)ccnc12 [Example 179, hydrochloride]
[C] Cc1ccc(Cn2c(C)c(C)c3nccc(OCc4ccc(Br)cc4)c32)cc1 [Example 224, hydrochloride]
[D] Cc1c(C)n(Cc2ccc(C(C)(C)C)cc2)c2c(OCc3ccc(Cl)cc3)ccnc12 [Example 79, hydrochloride]
[E] Cc1cccc(COc2ccnc3c(C)c(C)n(Cc4cccc(F)c4)c23)c1 [Example 146, hydrochloride]
# input Rank by IC50 (largest to smallest). # list labels per requested ordering
# output E, D, B, A, C
